test system: DeltatarO mutant; assay: S. aureus survival, RN4220 and DeltatarO strains – OD600, teichoic acid synthesis inhibitors, primary screen (AID 463173); conditions: S. aureus RN4220 wild type/DeltatarO growth, OD600, 18 h, active compounds read low, screened at 18.75 µg/mL (by protocol)
About 4,300 (8.3%) of roughly 52,000 compounds were called active. Only a selection was taken, and actives are over-represented in it overall.
As shown below, each of these molecules has a reported survival value.
The answer is to be given in %; state only the numeric part.

| molecule | target or test system | measured parameter | units label | observed result |
| --- | --- | --- | --- | --- |
| Cc1sc(-n2cccc2)c(C(C)NC(=O)Nc2ccccc2Cl)c1C (stereo not drawn) | DeltatarO mutant | survival | % | 61 |
| CC(C)C(=O)Nc1cccc(C(=O)Nc2nncs2)c1 | DeltatarO mutant | survival | % | 87 |

From here, focus on the item given below.
QUERY: Can you share its survival? I mean this molecule: "Cc1cc(C)cc(NC(=O)c2cc(S(=O)(=O)N3CCc4ccccc43)cn2C)c1"
RESULT: 63
